Tested on: corn
Assay: Test C preemergence/postemergence greenhouse plant response rating 0 to 100
Assay type: in vivo, Zea mays
Conditions: POSTEMERGENCE, 62 g/ha, 0 to 100 scale
# reported Plant response rating, Corn; entries follow
RESULT_TYPE: Plant response rating, Corn

| COMPOUND | EXPERIMENTAL_TARGET | RESULT_TYPE | MEASURED_RESULT |
| --- | --- | --- | --- |
| C=CCN1C(=O)COc2cc(F)c(-c3nn4c(c3Cl)CCCC4)cc21 | corn | Plant response rating, Corn | 40 |
| CCN1C(=O)COc2cc(F)c(-c3nn4c(c3Cl)CCCC4)cc21 | corn | Plant response rating, Corn | 50 |
| C=C(Cl)COc1cc(-c2nn3c(c2Cl)CCCC3)c(F)cc1Cl | corn | Plant response rating, Corn | 30 |
| CC(C)COc1cc(-c2nn3c(c2Cl)CCCC3)c(F)cc1Cl | corn | Plant response rating, Corn | 30 |
| COc1cc(-c2nn3c(c2Cl)CCCC3)c(F)cc1Cl | corn | Plant response rating, Corn | 40 |
| C#CC(C)Oc1cc(-c2nn3c(c2Br)CCCC3)c(F)cc1Cl (stereo not drawn) | corn | Plant response rating, Corn | 40 |

----------
Test system: morningglory
Assay: Test B preemergence/postemergence greenhouse plant response rating 0 to 10
Assay type: in vivo, Ipomoea hederacea
Details: POSTEMERGENCE, Rate 50 g/ha; 0 to 10 scale

| COMPOUND | Plant response rating, Morningglory |
| --- | --- |
| Clc1ccc(-c2nc3n(c2Br)CCCC3)c(Cl)c1 | 9 |
| O=C1COc2cc(F)c(-c3nn4c(c3Cl)CCCC4)cc2N1 | 9 |
| C#CC(C)Oc1cc(-c2nn3c(c2Cl)CCCC3)c(Cl)cc1Cl (centres unmarked) | 9 |
| CC(C)OC(=O)COc1cc(-c2nn3c(c2Br)CCCC3)c(F)cc1Cl | 9 |
| C=CCOC(=O)COc1cc(-c2nn3c(c2Cl)CCCC3)c(F)cc1Cl | 9 |
| COCOc1cc(-c2nn3c(c2Cl)CCCC3)c(F)cc1Cl | 9 |
| C#CCOc1cc(-c2nn3c(c2Br)CCCC3)c(F)cc1Cl | 9 |
| Fc1cc(Cl)c(OC2CCCC2)cc1-c1nn2c(c1Cl)CCCC2 | 9 |

----------
System: sorghum
Assay: Test B preemergence/postemergence greenhouse plant response rating 0 to 10
Type: in vivo, Sorghum bicolor
Conditions: Rate 200 g/ha, PREEMERGENCE; 0 to 10 scale
RESULT_TYPE: Plant response rating, Sorghum

| SMILES_NOTATION | EXPERIMENTAL_TARGET | RESULT_TYPE | MEASURED_RESULT |
| --- | --- | --- | --- |
| CC(C)Oc1cc(-c2nn3c(c2Cl)CCCC3)c(F)cc1Cl | sorghum | Plant response rating, Sorghum | 2 |
| Clc1ccc(-c2nn3c(c2Cl)CCCC3)c(Cl)c1 | sorghum | Plant response rating, Sorghum | 3 |
| CC(C)OC(=O)c1cc(-c2nn3c(c2Cl)CCCC3)c(F)cc1Cl | sorghum | Plant response rating, Sorghum | 2 |

----------
Test system: cotton
Test: Test B preemergence/postemergence greenhouse plant response rating 0 to 10
Assay type: in vivo, Gossypium hirsutum
Settings: PREEMERGENCE, Rate 50 g/ha; 0 to 10 scale
Parameter Plant response rating, Cotton: see the listing below.

| COMPOUND | Plant response rating, Cotton |
| --- | --- |
| CC(C)OC(=O)COc1cc(-c2nn3c(c2Cl)CCCC3)c(F)cc1Cl | 0 |
| COC(=O)c1cc(-c2nn3c(c2Cl)CCCC3)c(F)cc1Cl | 0 |
| FCCCOc1cc(-c2nn3c(c2Cl)CCCC3)c(F)cc1Cl | 0 |
| Clc1ccc(-c2nc3n(c2Br)CCCC3)c(Cl)c1 | 0 |
| Oc1cc(-c2nn3c(c2Cl)CCCC3)c(Cl)cc1Cl | 0 |
| CC(C)Oc1cc(-c2nn3c(c2Br)CCCC3)c(F)cc1Cl | 0 |
| Fc1cc(Cl)ccc1-c1nn2c(c1Br)CCCC2 | 0 |
| CC(C)N1C(=O)COc2cc(F)c(-c3nn4c(c3Cl)CCCC4)cc21 | 0 |
| C=CCN1C(=O)COc2cc(F)c(-c3nn4c(c3Cl)CCCC4)cc21 | 0 |
| COCOc1cc(-c2nn3c(c2Cl)CCCC3)c(F)cc1Cl | 0 |
| CCOC(=O)COc1cc(-c2nn3c(c2Cl)CCCC3)c(Cl)cc1Cl | 0 |
| CCCOc1cc(-c2nn3c(c2Cl)CCCC3)c(F)cc1Cl | 5 |
| C#CC(C)Oc1cc(-c2nn3c(c2Cl)CCCC3)c(F)cc1Cl (stereo not drawn) | 4 |
| CCC(=O)Oc1cc(-c2nn3c(c2Cl)CCCC3)c(F)cc1Cl | 0 |
| CC(C)(C)C(=O)COc1cc(-c2nn3c(c2Cl)CCCC3)c(Cl)cc1Cl | 0 |
| CCCCN1C(=O)COc2cc(F)c(-c3nn4c(c3Cl)CCCC4)cc21 | 2 |
| Fc1cc(Cl)c(OCCCl)cc1-c1nn2c(c1Cl)CCCC2 | 2 |
| CCOCOc1cc(-c2nn3c(c2Cl)CCCC3)c(F)cc1Cl | 4 |
